- Test system: human SMAD7 mRNA
- procedure-summary: Antisense inhibition of human SMAD7 mRNA expression in Hep3B cells by 3-10-3 cEt gapmers, 10,000 nM, electroporation (Example 2)
- Format: cell-based
- cond: Hep3B cells, electroporation with 10,000 nM antisense oligonucleotide, approximately 24 hours, RTS5062, percent inhibition of SMAD7 mRNA relative to untreated control cells
Strand notation (5' to 3'): a small letter for the sugar, then the base; units joined by * are phosphorothioate-linked, units joined directly phosphodiester-linked; [ ] holds rarer units or linkages, { } end groups; capitals alone tell only the bases. k = constrained ethyl (cEt); [5mC] = 5-methylcytosine; d = 2'-deoxy (DNA)
Kindly note that classification relies on % Inhibition with these boundaries: lower band (below 40%), central band (40% to below 50%), upper band (50% or more)

Answered cases to consult:
799767 (kT*k[5mC]*kT*dG*dT*dT*dT*dG*dG*dA*d[5mC]*dA*dA*kG*kT*kT; antisense) [compound 799767] = central band
799289 (antisense kT*kA*kT*dT*dA*dA*dT*dG*dG*dT*d[5mC]*dT*dG*k[5mC]*kT*k[5mC]) [compound 799289] = upper band
799828 (antisense kT*kG*k[5mC]*dG*dA*dG*d[5mC]*d[5mC]*dA*dA*dG*dA*dG*kA*k[5mC]*kA) [compound 799828] = upper band
799788 (k[5mC]*kA*k[5mC]*dA*dA*d[5mC]*d[5mC]*dA*dA*dA*dG*d[5mC]*dA*kG*kA*kA; antisense) [compound 799788] = upper band
799277 (antisense k[5mC]*kT*k[5mC]*d[5mC]*dG*dG*dG*d[5mC]*dA*dG*d[5mC]*d[5mC]*dA*kG*kT*kT) [compound 799277] = lower band
799290 (antisense kG*kA*kT*dT*dA*dT*dT*dA*dA*dT*dG*dG*dT*k[5mC]*kT*kG) [compound 799290] = lower band
799278 (antisense k[5mC]*k[5mC]*k[5mC]*dG*dT*d[5mC]*dT*dG*dG*dG*d[5mC]*dT*d[5mC]*k[5mC]*kG*kG) [compound 799278] = lower band
799802 (k[5mC]*k[5mC]*kA*dG*dA*d[5mC]*dA*dG*dG*d[5mC]*d[5mC]*dA*dG*kG*kG*k[5mC]; antisense) [compound 799802] = lower band

Challenge: In plain terms, what class is 799663 (antisense kG*k[5mC]*kA*d[5mC]*dA*dG*d[5mC]*d[5mC]*dA*dA*dG*dA*dG*kA*kT*kG) [compound 799663] ?
Response given: upper band

Challenge: Band for the recorded % Inhibition of 799623 (kT*kA*k[5mC]*dA*dA*dT*d[5mC]*dT*d[5mC]*d[5mC]*dT*dG*dG*kA*kA*kG; antisense) [compound 799623] ?
Response given: central band

Challenge: Please let me know in which category the item 799645 (k[5mC]*kA*kA*dA*dG*dA*dT*dG*dA*dT*dA*dG*d[5mC]*kT*kT*k[5mC]; antisense) [compound 799645] belongs.
Response given: central band

Challenge: Into which category would you place 799789 (kA*k[5mC]*kA*d[5mC]*dA*dA*d[5mC]*d[5mC]*dA*dA*dA*dG*d[5mC]*kA*kG*kA; antisense) [compound 799789] ?
Response given: central band

Challenge: Could you place 799703 (antisense k[5mC]*k[5mC]*kA*dA*dT*dG*dG*d[5mC]*dA*dT*dT*dG*dA*kA*kT*kA) [compound 799703] in its proper category? Many thanks.
Response given: central band

Challenge: Hi, small favor: classify 799272 (antisense kA*kT*kT*dA*d[5mC]*dT*d[5mC]*dG*dA*dG*dT*d[5mC]*dA*kG*kG*k[5mC]) [compound 799272] by its % Inhibition when you get a moment.
Response given: upper band

###

% Inhibition overview
- Test system: human SMAD7 mRNA
- procedure-summary: Antisense inhibition of human SMAD7 mRNA expression in Hep3B cells by 3-10-3 cEt gapmers, 10,000 nM, electroporation (Example 2)
- Assay type: cell-based
- cond: SMAD7 mRNA, Hep3B cells, 10,000 nM antisense oligonucleotide, electroporation, approximately 24 hours, primer probe set RTS5062, relative to untreated control cells
Strand notation (5' to 3'): a small letter for the sugar, then the base; units joined by * are phosphorothioate-linked, units joined directly phosphodiester-linked; [ ] holds rarer units or linkages, { } end groups; capitals alone tell only the bases. k = constrained ethyl (cEt); [5mC] = 5-methylcytosine; d = 2'-deoxy (DNA)
Value expressed in %; do not type the unit.

Use the examples below as a reference point.
800769 (antisense kG*k[5mC]*kA*dG*dG*d[5mC]*dG*dA*d[5mC]*dA*dG*d[5mC]*dA*kG*k[5mC]*kA) [compound 800769] = 49
829774 (antisense kA*kG*kT*dA*dG*dG*dA*d[5mC]*dG*dA*dG*dG*dG*k[5mC]*kG*kG) [compound 829774] = 22

Next substance, please.
Challenge: For the substance 790488 (kT*kT*k[5mC]*d[5mC]*dG*dA*dG*dG*dA*dA*dT*dG*d[5mC]*k[5mC]*kT*kG; antisense) [compound 790488] , give its reported % Inhibition.
Response given: 81

###

- System: human SMAD7 mRNA
- procedure-summary: Antisense inhibition of human SMAD7 mRNA expression in Hep3B cells by 3-10-3 cEt gapmers, 10,000 nM, electroporation (Example 2)
- Format: cell-based
- cond: Hep3B cells, 10,000 nM antisense oligonucleotide, electroporation, approximately 24 hours, RT-PCR primer probe set RTS5062, relative to untreated control cells
Strand notation (5' to 3'): a small letter for the sugar, then the base; units joined by * are phosphorothioate-linked, units joined directly phosphodiester-linked; [ ] holds rarer units or linkages, { } end groups; capitals alone tell only the bases. k = constrained ethyl (cEt); [5mC] = 5-methylcytosine; d = 2'-deoxy (DNA)
endpoint: % Inhibition (%)
The answer is to be given in %; state only the numeric part.

Some substances with known % Inhibition results, for comparison:
799896 (antisense k[5mC]*kT*kT*dA*d[5mC]*d[5mC]*dT*d[5mC]*dA*d[5mC]*d[5mC]*d[5mC]*dA*k[5mC]*k[5mC]*kT) [compound 799896] = 36
800012 (kG*kA*kG*dG*dA*d[5mC]*dT*dT*d[5mC]*dA*dG*d[5mC]*d[5mC]*kT*kG*kT; antisense) [compound 800012] = 49
800091 (antisense kT*kG*kA*d[5mC]*dA*d[5mC]*dA*dG*d[5mC]*d[5mC]*dA*dG*dA*kG*k[5mC]*kT) [compound 800091] = 0

Here is the next item to consider.
Challenge: Please give the documented % Inhibition of 799954 (antisense k[5mC]*kA*kG*dA*dA*dA*dA*dT*dG*d[5mC]*d[5mC]*d[5mC]*dA*k[5mC]*k[5mC]*kA) [compound 799954]
Response given: 42

###

- System: human SMAD7 mRNA
- procedure-summary: Dose-dependent inhibition of human SMAD7 mRNA expression in Hep3B cells (Example 3, Study 1 and 2)
- Format: cell-based
- cond: 6670.0 nM, electroporation, approximately 16 hours, Study 2
Strand notation (5' to 3'): a small letter for the sugar, then the base; units joined by * are phosphorothioate-linked, units joined directly phosphodiester-linked; [ ] holds rarer units or linkages, { } end groups; capitals alone tell only the bases. k = constrained ethyl (cEt); [5mC] = 5-methylcytosine; d = 2'-deoxy (DNA)
Below, each entry is listed alongside its reported % inhibition of SMAD7 mRNA expression.
// note: answer is a bare numeric in %

Some solved cases for reference:
799787 (k[5mC]*k[5mC]*kA*dA*dA*dG*d[5mC]*dA*dG*dA*dA*dG*dT*kA*kG*kA; antisense) [compound 799787] = 35
799540 (kA*kG*k[5mC]*dT*dG*dA*dA*dG*d[5mC]*d[5mC]*d[5mC]*d[5mC]*d[5mC]*k[5mC]*kA*kA; antisense) [compound 799540] = 63
772858 (kA*kG*kT*dG*dT*dT*d[5mC]*dA*dA*d[5mC]*dA*dA*dT*kG*k[5mC]*kT; antisense) [compound 772858] = 29
799534 (kG*kA*kG*dA*dA*dT*dG*dA*dA*dG*dT*d[5mC]*d[5mC]*kA*kG*kA; antisense) [compound 799534] = 51

Challenge: Tell me measured % inhibition of SMAD7 mRNA expression for 799663 (antisense kG*k[5mC]*kA*d[5mC]*dA*dG*d[5mC]*d[5mC]*dA*dA*dG*dA*dG*kA*kT*kG) [compound 799663] please.
Response given: 61

Challenge: In one line, give reported % inhibition of SMAD7 mRNA expression of the entry 799589 (kA*kA*kT*dA*dT*d[5mC]*dT*dG*dT*dG*dT*d[5mC]*dT*kA*k[5mC]*kA; antisense) [compound 799589] .
Response given: 77
